tested on: Acanthamoeba castellanii trophozoites; assay: Activity against Acanthamoeba castellanii trophozoites; type: cell-based; details: trophozoites, n = 2, Table 6, read-out: Acanthamoeba castellanii IC50
Classify: satisfied when IC50 is strictly less than 800 nM; not satisfied when IC50 is not.

Does the reported IC50 of CCC(CC)NC(=N)c1ccc2nc(-c3ccc(Oc4ccc(-c5nc6ccc(C(=N)NC(CC)CC)cc6[nH]5)cc4)cc3)[nH]c2c1 [Compound T] stay below 800 nM?
not satisfied

Follow-up item: COc1cc(-c2nc3ccc(C(=N)NC(C)C)cc3[nH]2)ccc1Oc1c(F)cc(-c2nc3ccc(C(=N)NC(C)C)cc3[nH]2)cc1F [Compound AB]
not satisfied

Follow-up item: CC(C)NC(=N)c1ccc2nc(-c3ccc(Oc4ccc(-c5nc6ccc(C(=N)NC(C)C)cc6[nH]5)c(Cl)c4)c(Cl)c3)[nH]c2c1 [AD]
not satisfied

Follow-up item: CC(C)NC(=N)c1ccc2nc(-c3ccc(Oc4ccc(-c5nc6ccc(C(=N)NC(C)C)cc6[nH]5)c(Br)c4)c(Br)c3)[nH]c2c1 [Compound R]
satisfied

Follow-up item: CC(C)NC(=N)c1ccc2nc(-c3ccc(Oc4ccc(-c5nc6ccc(C(=N)NC(C)C)cc6[nH]5)c(F)c4)c(Br)c3)[nH]c2c1 [Compound AF]
satisfied

Follow-up item: CC(C)NC(=N)c1ccc2nc(-c3ccc(Oc4ccc(-c5nc6ccc(C(=N)NC(C)C)cc6[nH]5)c(Cl)c4)cc3Cl)[nH]c2c1 [L]
satisfied

More entries:
Does the reported IC50 of N=C(c1ccc2nc(-c3ccc(Oc4ccc(-c5nc6ccc(C(=N)N7CCCCCC7)cc6[nH]5)cc4)cc3)[nH]c2c1)N1CCCCCC1 [BD] stay below 800 nM?
not satisfied
